- test-protocol: Pharmacokinetics of curcumin and THC in plasma during and after liposomal curcumin infusion
- Type: in vivo, human
- measurement-parameters: human, in vivo, 300 mg/m^2, plasma THC, first liposomal curcumin infusion; DL 6a: 300 mg/m^2, 6 h infusion; Mean; read-out: AUC0-Tlast
property-name: AUC(0-t) (µg·h/mL)
Numbers only; they are read as µg·h/mL.

Input: I would be grateful if you could share the reported AUC(0-t) for COc1cc(CCC(=O)CC(=O)CCc2ccc(O)c(OC)c2)ccc1O [tetrahydrocurcumin] .
Output: 0.326

* * *

- test-protocol: Pharmacokinetics of curcumin and THC in plasma during and after liposomal curcumin infusion
- Type: in vivo, human
- measurement-parameters: human, in vivo, 190 mg/m^2, plasma THC, first liposomal curcumin infusion; DL 4: 190 mg/m^2, 8 h infusion; Mean, patient #19 not included; read-out: Cmax
property-name: Cmax (ng/mL)
Write it as a number; the unit ng/mL goes unstated.

Input: Quick one: Cmax for COc1cc(CCC(=O)CC(=O)CCc2ccc(O)c(OC)c2)ccc1O [tetrahydrocurcumin] ?
Output: 7.2

* * *

- test-protocol: Pharmacokinetics of curcumin and THC in plasma during and after liposomal curcumin infusion
- Type: in vivo, human
- measurement-parameters: human, in vivo, 190 mg/m^2, plasma THC, first liposomal curcumin infusion; DL 4: 190 mg/m^2, 8 h infusion; Mean, patient #19 not included; read-out: Tmax
property-name: Tmax (h)
Write it as a number; the unit h goes unstated.

Input: Give its Tmax value. Item: COc1cc(CCC(=O)CC(=O)CCc2ccc(O)c(OC)c2)ccc1O [tetrahydrocurcumin]
Output: 5

* * *

- test-protocol: Pharmacokinetics of curcumin and THC in plasma during and after liposomal curcumin infusion
- Type: in vivo, human
- measurement-parameters: human, in vivo, 300 mg/m^2, plasma THC, first liposomal curcumin infusion; DL 6a: 300 mg/m^2, 6 h infusion; Mean; read-out: Cmax
property-name: Cmax (ng/mL)
The figure you give is taken to be in ng/mL; do not add the unit.

Input: Returns the measured Cmax for the input compound. Input: COc1cc(CCC(=O)CC(=O)CCc2ccc(O)c(OC)c2)ccc1O [tetrahydrocurcumin]
Output: 70.3

* * *

- test-protocol: Pharmacokinetics of curcumin and THC in plasma during and after liposomal curcumin infusion
- Type: in vivo, human
- measurement-parameters: human, in vivo, 300 mg/m^2, plasma THC, first liposomal curcumin infusion; DL 6: 300 mg/m^2, 8 h infusion; Mean; read-out: AUC0-Tlast
property-name: AUC(0-t) (ng·h/mL)
Lab book: enter the figure in ng·h/mL, no units written.

Input: Give its AUC(0-t) value. Item: COc1cc(CCC(=O)CC(=O)CCc2ccc(O)c(OC)c2)ccc1O [tetrahydrocurcumin]
Output: 344

* * *

- test-protocol: Pharmacokinetics of curcumin and THC in plasma during and after liposomal curcumin infusion
- Type: in vivo, human
- measurement-parameters: human, in vivo, 240 mg/m^2, plasma curcumin, first liposomal curcumin infusion; DL 5: 240 mg/m^2 8 h infusion; Mean; read-out: Cmax
property-name: Cmax (ng/mL)
# number only, unit ng/mL dropped from output

Input: Name the recorded Cmax for COc1cc(/C=C/C(=O)CC(=O)/C=C/c2ccc(O)c(OC)c2)ccc1O .
Output: 647

* * *

- test-protocol: Pharmacokinetics of curcumin and THC in plasma during and after liposomal curcumin infusion
- Assay type: in vivo, human
- measurement-parameters: human, in vivo, 150 mg/m^2, plasma THC, first liposomal curcumin infusion; DL 3: 150 mg/m^2, 8 h infusion; patient 17; read-out: AUC0-Tlast
property-name: AUC(0-t) (ng·h/mL)
The answer is to be given in ng·h/mL; state only the numeric part.

Input: Please report the recorded AUC(0-t) for COc1cc(CCC(=O)CC(=O)CCc2ccc(O)c(OC)c2)ccc1O [tetrahydrocurcumin] .
Output: 59
